Target: furin, P09958;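 further: purified furin at 1:10 enzyme:substrate in 50 mM HEPES pH 7.5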
Sequence (P09958 whole entry): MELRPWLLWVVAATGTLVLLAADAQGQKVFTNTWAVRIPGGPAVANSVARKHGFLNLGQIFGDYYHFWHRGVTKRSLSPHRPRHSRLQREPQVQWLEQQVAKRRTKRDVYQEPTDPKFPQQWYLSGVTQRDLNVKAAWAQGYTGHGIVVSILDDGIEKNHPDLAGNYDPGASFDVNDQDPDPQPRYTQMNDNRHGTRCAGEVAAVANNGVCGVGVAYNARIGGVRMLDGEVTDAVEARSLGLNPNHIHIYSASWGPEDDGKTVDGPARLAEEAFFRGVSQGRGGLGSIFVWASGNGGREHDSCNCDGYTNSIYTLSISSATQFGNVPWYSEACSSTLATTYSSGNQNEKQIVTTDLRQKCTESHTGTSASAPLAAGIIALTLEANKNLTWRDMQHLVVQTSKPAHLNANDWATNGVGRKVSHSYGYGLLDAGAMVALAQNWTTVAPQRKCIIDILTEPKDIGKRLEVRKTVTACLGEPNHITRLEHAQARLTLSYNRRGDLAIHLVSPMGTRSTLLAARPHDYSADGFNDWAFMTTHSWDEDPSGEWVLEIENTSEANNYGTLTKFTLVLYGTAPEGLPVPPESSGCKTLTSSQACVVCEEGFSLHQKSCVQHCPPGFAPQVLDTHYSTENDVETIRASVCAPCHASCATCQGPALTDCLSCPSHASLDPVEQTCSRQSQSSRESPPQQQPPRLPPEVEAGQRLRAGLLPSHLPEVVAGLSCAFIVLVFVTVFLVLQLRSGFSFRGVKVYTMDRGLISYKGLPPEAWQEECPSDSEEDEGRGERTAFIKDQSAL
Assay: furin cleavage Z-score vs untreated control; higher = more cleavage, active = 3.5 or more, inactive = 1 or less, 8 variable residues between constant flanks
Conditions: 15 min
Some of the results follow. How many sequences the whole screen found active is unknown.
Short version: furin cleavage Z-score at least -0.7 is MET, less is NOT MET.

Some solved cases for reference:
[
  {
    "RESIDUE_CODES": "CATPSRCVRIAGNASASA [FS-203]",
    "CATEGORY_LABEL": "NOT MET"
  },
  {
    "RESIDUE_CODES": "CAPCRRKPRDAGNASASA [FS-838]",
    "CATEGORY_LABEL": "MET"
  },
  {
    "RESIDUE_CODES": "CAPVGSQLPCAGNASASA [HC1238]",
    "CATEGORY_LABEL": "NOT MET"
  },
  {
    "RESIDUE_CODES": "CATPSRAGRAAGNASASA [FS-99]",
    "CATEGORY_LABEL": "MET"
  },
  {
    "RESIDUE_CODES": "CAQKLETFWAAGNASASA [HC1038]",
    "CATEGORY_LABEL": "MET"
  }
]

Moving on to the next sequence.
Qu. Please indicate if the recorded furin cleavage Z-score for CAPKRRKPRVAGNASASA [FS-1242] meets or exceeds -0.7.
Ans. MET
